EXPERIMENT NOTES: Pharmacokinetic measurement in mouse, single sc dose 30 nmol/kg, plasma ELISA
DETAILS: single sc dose 30 nmol/kg
# maps each entry to its Terminal t1/2
MEASURED PROPERTY: Terminal t1/2 (h)

MOLECULE	MEASURED PROPERTY	ASSAY VALUE
MLC019: unconjugated GLP-1/GDF15 fusion protein, linker of at least 80 residues (protein) HGEGTFTSDVSSYLEEQAAKEFIAWLVRGGGGQEPGAQPGQEPGAQPGQEPGAQPGQEPGAQPGQEPGAQPGQEPGAQPGAQPGAQPGAQPGAQPGAQPGAQPGAQPGAQPARQGDHCPLGPGRCCRLHTVRASLEDLGWADWVLSPREVQVTMCIGACPSQFRAANLHAQIKTSLHRLRPDTVPAPCCVPASYNPMVLIQRTDTGVSLQTYDDLLARDCHCI	Terminal t1/2	4.8
MLC007: fusion polypeptide SEQ ID NO: 254 conjugated with Moiety A at 1K of Linker (conjugate, Moiety A conjugated at linker K1) HGEGTFTSDVSSYLEEQAAREFIAWLVRGGGKQEPGQEPGQEPGQEPGQEPGQEPGQEPGQEPGAQPGAQPARQGDHCPLGPGRCCRLHTVRASLEDLGWADWVLSPREVQVTMCIGACPSQFRAANLHAQIKTSLHRLRPDTVPAPCCVPASYNPMVLIQRTDTGVSLQTYDDLLARDCHCI	Terminal t1/2	4.7
